Catalogue of normalized RNA/DNA level with ligand (log10) values
B1: library; a variant is named by its letters at N, in order (parent)
chain: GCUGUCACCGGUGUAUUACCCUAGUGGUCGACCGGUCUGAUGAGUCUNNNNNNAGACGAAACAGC

- Variants of: B1
- experiment: normalized RNA/DNA level with ligand (relative to sTRSVctl = 100) (log10 (% of sTRSVctl)); ligand: hypoxanthine (xanthine aptamer); higher = less ribozyme self-cleavage, higher mRNA level
- experimental.conditions: ligand concentration (+) RNA-Seq: 5 mM, HEK293T, reporter: mCherry (pCS4076), ligand present: yes
Just the number, please, no unit attached.

Field: example entries. Status: answers known.
GCUGUCACCGGUGUAUUACCCUAGUGGUCGACCGGUCUGAUGAGUCUCCGCGUAGACGAAACAGC [CCGCGU] | 1.97
GCUGUCACCGGUGUAUUACCCUAGUGGUCGACCGGUCUGAUGAGUCUCUCGCCAGACGAAACAGC [CUCGCC] | 1.99
GCUGUCACCGGUGUAUUACCCUAGUGGUCGACCGGUCUGAUGAGUCUUAGGGUAGACGAAACAGC [UAGGGU] | 1.84
GCUGUCACCGGUGUAUUACCCUAGUGGUCGACCGGUCUGAUGAGUCUAUGUAAAGACGAAACAGC [AUGUAA] | 1.93

Prompt line: If you can, please state the reported normalized RNA/DNA level with ligand (log10) value of GCUGUCACCGGUGUAUUACCCUAGUGGUCGACCGGUCUGAUGAGUCUAGUUUUAGACGAAACAGC [AGUUUU] .
Response line: 1.97

Prompt line: If you can, please state the reported normalized RNA/DNA level with ligand (log10) value of GCUGUCACCGGUGUAUUACCCUAGUGGUCGACCGGUCUGAUGAGUCUUGAUAAAGACGAAACAGC [UGAUAA] .
Response line: 1.91

Prompt line: If you can, please state the reported normalized RNA/DNA level with ligand (log10) value of GCUGUCACCGGUGUAUUACCCUAGUGGUCGACCGGUCUGAUGAGUCUCAAACAAGACGAAACAGC [CAAACA] .
Response line: 1.93

Prompt line: If you can, please state the reported normalized RNA/DNA level with ligand (log10) value of GCUGUCACCGGUGUAUUACCCUAGUGGUCGACCGGUCUGAUGAGUCUGCAAAAAGACGAAACAGC [GCAAAA] .
Response line: 1.93

Prompt line: If you can, please state the reported normalized RNA/DNA level with ligand (log10) value of GCUGUCACCGGUGUAUUACCCUAGUGGUCGACCGGUCUGAUGAGUCUACAGGGAGACGAAACAGC [ACAGGG] .
Response line: 1.83
